- system-under-test: UniProt:P07550
- method: Agonist activity at human beta-2 adrenergic receptor expressed in CHO cells assessed as cAMP accumulation
- Sequence (P07550 whole entry): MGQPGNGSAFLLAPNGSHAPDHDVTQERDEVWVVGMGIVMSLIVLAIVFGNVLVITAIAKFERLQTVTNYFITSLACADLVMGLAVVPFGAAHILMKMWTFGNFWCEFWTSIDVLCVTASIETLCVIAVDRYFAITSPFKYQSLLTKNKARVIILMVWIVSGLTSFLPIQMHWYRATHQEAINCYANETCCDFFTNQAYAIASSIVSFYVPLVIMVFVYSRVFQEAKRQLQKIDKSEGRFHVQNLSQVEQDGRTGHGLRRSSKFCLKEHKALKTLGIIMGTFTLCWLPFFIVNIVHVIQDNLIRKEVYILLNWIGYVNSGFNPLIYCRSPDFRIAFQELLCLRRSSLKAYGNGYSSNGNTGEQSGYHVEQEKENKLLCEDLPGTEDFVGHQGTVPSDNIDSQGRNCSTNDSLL
pEC50: −log10 of the molar value.
readout-kind: pEC50

[[record]]
input_smiles = "C[C@H](CNc1ccc(-c2sccc2C(=O)O)cc1)NC[C@H](O)c1cccc(Cl)c1"
experimental_value = 6.20

[[record]]
input_smiles = "C[C@H](CNc1ccc(-c2nc(C(=O)O)cs2)cc1)NC[C@H](O)c1cccc(Cl)c1"
experimental_value = 7.30

[[record]]
input_smiles = "C[C@H](CNc1cccc(-c2occc2C(=O)O)c1)NC[C@H](O)c1cccc(Cl)c1"
experimental_value = 6.90


I. C[C@H](CNc1ccc(-c2csc(C(=O)O)n2)cc1)NC[C@H](O)c1cccc(Cl)c1
II. C[C@H](CNc1ccc(-c2ocnc2C(=O)O)cc1)NC[C@H](O)c1cccc(Cl)c1
Which of these two has the smaller recorded pEC50: I or II ? Identify your pick by its label.
II
(II: 6.40, I: 7.30)

A. C[C@H](CNc1cccc(-c2csc(C(=O)O)n2)c1)NC[C@H](O)c1cccc(Cl)c1
B. C[C@H](CNc1cccc(-c2sccc2C(=O)O)c1)NC[C@H](O)c1cccc(Cl)c1
Of the two listed items, A and B , which carries the larger pEC50 figure? Field: selected label. Fill in the label of the entry you choose.
A

====

- system-under-test: Beta-1 adrenergic receptor (Homo sapiens, UniProt P08588)
- Sequence (P08588 whole entry, looked up): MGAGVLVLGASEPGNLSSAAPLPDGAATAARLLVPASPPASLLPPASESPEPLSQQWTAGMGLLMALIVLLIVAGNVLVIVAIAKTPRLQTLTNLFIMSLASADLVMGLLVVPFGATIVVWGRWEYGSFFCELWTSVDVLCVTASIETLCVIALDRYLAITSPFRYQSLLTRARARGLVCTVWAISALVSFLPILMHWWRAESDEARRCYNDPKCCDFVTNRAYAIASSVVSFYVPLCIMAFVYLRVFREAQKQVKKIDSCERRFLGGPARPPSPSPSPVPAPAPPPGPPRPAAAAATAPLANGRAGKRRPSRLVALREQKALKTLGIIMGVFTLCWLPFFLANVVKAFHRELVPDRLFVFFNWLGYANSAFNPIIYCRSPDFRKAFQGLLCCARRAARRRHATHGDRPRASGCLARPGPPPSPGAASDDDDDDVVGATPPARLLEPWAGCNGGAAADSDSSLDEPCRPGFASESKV
- method: Agonist activity at human beta-1 adrenergic receptor expressed in CHO cells assessed as cAMP accumulation relative to R-(-)-isoproterenol
- Assay type: functional, cell-based
readout-kind: Emax (%)

[[record]]
input_smiles = "C[C@H](CNc1ccc(-c2sccc2C(=O)O)cc1)NC[C@H](O)c1cccc(Cl)c1"
readout_kind = "Emax"
experimental_value = 14

[[record]]
input_smiles = "C[C@H](CNc1cccc(-c2occc2C(=O)O)c1)NC[C@H](O)c1cccc(Cl)c1"
readout_kind = "Emax"
experimental_value = 14

[[record]]
input_smiles = "C[C@H](CNc1cccc(-c2ocnc2C(=O)O)c1)NC[C@H](O)c1cccc(Cl)c1"
readout_kind = "Emax"
experimental_value = 14


====

- system-under-test: Beta-2 adrenergic receptor (Homo sapiens)
- method: Agonist activity at human beta-2 adrenergic receptor expressed in CHO cells assessed as cAMP accumulation relative to R-(-)-isoproterenol
- Format: functional, cell-based
- Sequence (P07550 whole entry, looked up): as the sequence (P07550 whole entry) above
readout-kind: Emax (%)

[[record]]
input_smiles = "C[C@H](CNc1ccc(-c2csc(C(=O)O)n2)cc1)NC[C@H](O)c1cccc(Cl)c1"
readout_kind = "Emax"
experimental_value = 63

[[record]]
input_smiles = "C[C@H](CNc1ccc(-c2nc(C(=O)O)cs2)cc1)NC[C@H](O)c1cccc(Cl)c1"
readout_kind = "Emax"
experimental_value = 41


a. C[C@H](CNc1cccc(-c2sccc2C(=O)O)c1)NC[C@H](O)c1cccc(Cl)c1
b. C[C@H](CNc1cccc(-c2nc(C(=O)O)co2)c1)NC[C@H](O)c1cccc(Cl)c1
Please indicate which entry, a or b , has the lower recorded Emax value. Please indicate the selected item by its label.
a

1. C[C@H](CNc1ccc(-c2sccc2C(=O)O)cc1)NC[C@H](O)c1cccc(Cl)c1
2. C[C@H](CNc1ccc(-c2occc2C(=O)O)cc1)NC[C@H](O)c1cccc(Cl)c1
3. C[C@H](CNc1ccc(-c2ocnc2C(=O)O)cc1)NC[C@H](O)c1cccc(Cl)c1
Put these in order: smallest Emax first, largest last. The labels, placed in the requested order, form the answer.
1, 2, 3
(1: 19%, 2: 36%, 3: 55%)
